Target or test system: Gonadotropin-releasing hormone receptor (Homo sapiens)
Sequence (P30968 whole entry): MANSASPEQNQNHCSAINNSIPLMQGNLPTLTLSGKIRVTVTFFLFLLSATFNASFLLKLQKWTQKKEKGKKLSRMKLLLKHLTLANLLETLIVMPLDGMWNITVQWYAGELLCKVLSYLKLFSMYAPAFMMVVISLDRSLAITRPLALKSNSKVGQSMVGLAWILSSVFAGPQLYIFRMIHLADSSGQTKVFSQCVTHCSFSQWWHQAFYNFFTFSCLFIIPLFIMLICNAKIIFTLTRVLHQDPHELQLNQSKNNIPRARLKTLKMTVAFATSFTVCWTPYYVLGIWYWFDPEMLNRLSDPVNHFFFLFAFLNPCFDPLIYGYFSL
Readout: IC50 (µM)

• COc1ccc([N+](=O)[O-])cc1CSc1nc2cc(NC(=O)NC(C)(C)C)ccc2n1Cc1ccccc1 = 0.028
• COc1ccc([N+](=O)[O-])cc1CSc1nc2cc(NC(=O)NC(C)(C)C)ccc2n1CCc1ccccc1 = 0.36
• CCn1c(SCc2cc([N+](=O)[O-])ccc2OC)nc2cc(NC(=O)NC(C)(C)C)ccc21 = 0.042

====

Target or test system: Gonadotropin-releasing hormone receptor (Rattus norvegicus)
Sequence (P30969 whole entry): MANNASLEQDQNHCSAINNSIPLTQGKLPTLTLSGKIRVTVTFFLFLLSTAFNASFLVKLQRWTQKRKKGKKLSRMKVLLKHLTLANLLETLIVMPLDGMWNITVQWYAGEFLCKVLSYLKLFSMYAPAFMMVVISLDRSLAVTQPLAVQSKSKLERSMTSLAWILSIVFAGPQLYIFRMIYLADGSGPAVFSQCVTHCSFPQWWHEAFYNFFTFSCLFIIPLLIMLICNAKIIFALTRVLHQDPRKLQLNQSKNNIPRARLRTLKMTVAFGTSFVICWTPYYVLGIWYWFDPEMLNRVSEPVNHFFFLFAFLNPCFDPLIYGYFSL
Simple rule here: IC50 less than 100 nM is label 1, otherwise label 0.

- COc1ccc(C#N)cc1CSc1nc2cc(NC(=O)C3CC3)ccc2n1C(C)C: label 0
- CCCn1c(SCc2cc([N+](=O)[O-])ccc2OC)nc2cc(NC(=O)NC(C)(C)C)cc(C(=O)NCCN)c21: label 1
- COc1ccc([N+](=O)[O-])cc1CSc1nc2cc(NC(=O)NC(C)(C)C)ccc2n1CCc1ccccc1: label 0
- COc1ccc([N+](=O)[O-])cc1CSc1nc2cc(NC(=O)NC(C)(C)C)ccc2n1Cc1cccnc1: label 0
- CCCn1c(SCc2cc([N+](=O)[O-])ccc2OC)nc2cc(NC(=O)NC(C)(C)C)cc(C(=O)NCc3cccnc3)c21: label 1
- CCCn1c(SCc2cc([N+](=O)[O-])ccc2OC)nc2cc(NC(=O)NC(C)(C)C)cc(C(=O)NCc3ccccc3)c21: label 0
- Cc1cccc(CSc2nc3cc(NC(=O)C4CC4)ccc3n2C(C)C)c1: label 0
- CCCn1c(SCc2cc([N+](=O)[O-])ccc2OC)nc2cc(NC(=O)NC(C)(C)C)cc(C(=O)NC)c21: label 1
- CCCCCn1c(SCc2cc([N+](=O)[O-])ccc2OC)nc2cc(NC(=O)NC(C)(C)C)ccc21: label 0
- CCCn1c(SCc2cc([N+](=O)[O-])ccc2OC)nc2cc(NC(=O)NC(C)(C)C)cc(C(=O)NCCc3ccncc3)c21: label 1
- COc1ccc([N+](=O)[O-])cc1CSc1nc2cc(NC(=O)C3CCC3)ccc2n1C(C)C: label 0
- COc1ccc([N+](=O)[O-])cc1CSc1nc2cc(NC(=O)NC3CC3)ccc2n1C(C)C: label 0
- COc1ccc([N+](=O)[O-])cc1CSc1nc2cc(NC(=O)CC(C)(C)C)ccc2n1C(C)C: label 0
- COc1ccc(C(C)=O)cc1CSc1nc2cc(NC(=O)C3CC3)ccc2n1C(C)C: label 0
- COc1ccc([N+](=O)[O-])cc1CSc1nc2cc(NC(=O)OC(C)(C)C)ccc2n1C(C)C: label 0
- CCCn1c(SCc2cc([N+](=O)[O-])ccc2OC)nc2cc(NC(=O)NC(C)(C)C)ccc21: label 0
- COc1ccccc1CSc1nc2cc(NC(=O)C3CC3)ccc2n1C(C)C: label 0
